B1: Calcium-binding protein 2, residues 155 to 219; numbered along this chain, Q9NPB3 (parent)
chain: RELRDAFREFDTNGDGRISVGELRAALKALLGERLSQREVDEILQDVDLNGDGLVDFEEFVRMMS

# Variants of: B1
# assay.method.text: abundance fitness (aPCA) (normalised: wild type 0, dead -1); higher = more abundant; growth selection in yeast, the domain comes from the species named
# setup.conditions: Homo sapiens
property.name: abundance fitness
Give bare numbers.

mutation.label: G21P
abundance fitness: 0.044
//
mutation.label: D48M
abundance fitness: 0.05
//
mutation.label: Q45R
abundance fitness: 0.054
//
mutation.label: L31I
abundance fitness: -0.061
//
mutation.label: E42W
abundance fitness: -0.183

For each listed entry, give its abundance fitness.
1. G32R
2. N13T
3. R62G
4. T12D
5. R34V

## Output
[-0.258, -0.404, -0.025, -0.42, -0.129]

Hello, the source for this data is the Human Domainome abundance scans (Beltran et al. 2025), in case you need it.
